# Tested system: Factor X (FX), P00742
# Sequence (P00742 whole entry, looked up): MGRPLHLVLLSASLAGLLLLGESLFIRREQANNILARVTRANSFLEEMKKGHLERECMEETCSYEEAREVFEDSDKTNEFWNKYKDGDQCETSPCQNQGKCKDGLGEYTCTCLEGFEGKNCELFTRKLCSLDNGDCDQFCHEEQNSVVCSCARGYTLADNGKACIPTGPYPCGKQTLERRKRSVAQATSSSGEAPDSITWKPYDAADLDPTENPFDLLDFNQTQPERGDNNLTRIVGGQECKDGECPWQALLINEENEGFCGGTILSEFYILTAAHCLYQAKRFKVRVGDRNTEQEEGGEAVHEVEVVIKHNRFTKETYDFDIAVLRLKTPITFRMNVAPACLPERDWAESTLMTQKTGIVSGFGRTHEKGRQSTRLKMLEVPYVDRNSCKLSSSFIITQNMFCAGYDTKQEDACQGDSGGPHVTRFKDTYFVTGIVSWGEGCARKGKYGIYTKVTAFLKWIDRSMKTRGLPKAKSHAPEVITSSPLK
Assign KM to each entry below.
One number for each entry, in µM.

Sample answers from the record:
{"Protein": "FIXa-Y155F/R318Y/R338E/T343R/R403E (protein) chain 1: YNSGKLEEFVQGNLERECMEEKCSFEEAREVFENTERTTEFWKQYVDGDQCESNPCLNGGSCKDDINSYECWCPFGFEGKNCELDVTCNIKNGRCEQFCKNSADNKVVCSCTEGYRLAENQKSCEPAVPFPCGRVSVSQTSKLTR chain 2: VVGGEDAKPGQFPWQVVLNGKVDAFCGGSIVNEKWIVTAAHCVETGVKITVVAGEHNIEETEHTEQKRNVIRIIPHHNYNAAINKYNHDIALLELDEPLVLNSYVTPICIADKEYTNIFLKFGSGYVSGWGRVFHKGYSALVLQYLRVPLVDRATCLESTKFRIYNNMFCAGFHEGGRDSCQGDSGGPHVTEVEGTSFLTGIISWGEECAMKGKYGIYTKVSEYVNWIKEKTKLT", "Readout value": 0.034}
{"Protein": "FIXa-R318Y/R338E/E410N/T412V (protein) chain 1: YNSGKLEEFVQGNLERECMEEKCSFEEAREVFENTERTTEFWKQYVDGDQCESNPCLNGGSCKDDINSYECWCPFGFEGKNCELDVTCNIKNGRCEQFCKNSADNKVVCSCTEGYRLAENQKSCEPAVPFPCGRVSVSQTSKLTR chain 2: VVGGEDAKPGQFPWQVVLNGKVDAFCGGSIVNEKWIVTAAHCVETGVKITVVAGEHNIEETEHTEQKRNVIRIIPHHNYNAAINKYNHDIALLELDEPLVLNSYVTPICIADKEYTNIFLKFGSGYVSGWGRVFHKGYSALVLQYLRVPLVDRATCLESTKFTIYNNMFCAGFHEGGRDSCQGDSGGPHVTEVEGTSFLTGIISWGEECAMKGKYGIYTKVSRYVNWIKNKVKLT", "Readout value": 0.0236}
{"Protein": "FIXa-K247N/N249S/N260S/R318Y/R338E/R403E/E410N (protein) chain 1: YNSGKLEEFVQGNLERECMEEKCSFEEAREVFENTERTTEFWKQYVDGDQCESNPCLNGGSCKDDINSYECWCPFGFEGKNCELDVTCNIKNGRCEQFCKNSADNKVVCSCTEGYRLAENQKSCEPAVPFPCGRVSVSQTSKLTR chain 2: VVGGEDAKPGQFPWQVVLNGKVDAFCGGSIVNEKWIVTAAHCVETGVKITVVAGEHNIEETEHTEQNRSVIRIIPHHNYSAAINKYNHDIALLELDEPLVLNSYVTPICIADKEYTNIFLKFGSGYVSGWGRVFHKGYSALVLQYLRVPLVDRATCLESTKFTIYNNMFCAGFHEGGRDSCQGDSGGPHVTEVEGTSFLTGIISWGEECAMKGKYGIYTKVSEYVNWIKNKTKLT", "Readout value": 0.0474}
{"Protein": "FIXa-Y155F/K247N/N249S/R338E/R403E/E410N (protein) chain 1: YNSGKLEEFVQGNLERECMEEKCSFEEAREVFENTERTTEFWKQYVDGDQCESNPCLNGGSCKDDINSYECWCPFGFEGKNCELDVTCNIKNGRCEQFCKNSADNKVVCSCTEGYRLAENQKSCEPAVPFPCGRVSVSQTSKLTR chain 2: VVGGEDAKPGQFPWQVVLNGKVDAFCGGSIVNEKWIVTAAHCVETGVKITVVAGEHNIEETEHTEQNRSVIRIIPHHNYNAAINKYNHDIALLELDEPLVLNSYVTPICIADKEYTNIFLKFGSGYVSGWGRVFHKGRSALVLQYLRVPLVDRATCLESTKFTIYNNMFCAGFHEGGRDSCQGDSGGPHVTEVEGTSFLTGIISWGEECAMKGKYGIYTKVSEYVNWIKNKTKLT", "Readout value": 0.0487}
{"Protein": "FIXa-Y155F/K228N/I251S/R318Y/R338E/R403E/E410N (protein) chain 1: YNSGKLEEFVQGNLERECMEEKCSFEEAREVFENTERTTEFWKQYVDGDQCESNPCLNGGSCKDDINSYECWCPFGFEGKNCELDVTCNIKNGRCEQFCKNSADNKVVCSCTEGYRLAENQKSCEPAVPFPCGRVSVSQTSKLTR chain 2: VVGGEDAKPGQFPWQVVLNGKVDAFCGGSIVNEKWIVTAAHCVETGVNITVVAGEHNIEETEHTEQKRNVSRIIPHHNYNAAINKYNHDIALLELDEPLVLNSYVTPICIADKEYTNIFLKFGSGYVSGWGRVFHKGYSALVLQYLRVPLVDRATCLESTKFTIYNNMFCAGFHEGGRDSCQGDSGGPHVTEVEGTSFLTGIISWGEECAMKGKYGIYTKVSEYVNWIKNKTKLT", "Readout value": 0.0393}
{"Protein": "FIXa-K247N/N249S/R318Y/R338E/R403E (protein) chain 1: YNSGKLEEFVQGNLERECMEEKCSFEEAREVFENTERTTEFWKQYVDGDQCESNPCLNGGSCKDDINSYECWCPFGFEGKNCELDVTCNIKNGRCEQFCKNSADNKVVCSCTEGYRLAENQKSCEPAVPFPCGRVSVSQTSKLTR chain 2: VVGGEDAKPGQFPWQVVLNGKVDAFCGGSIVNEKWIVTAAHCVETGVKITVVAGEHNIEETEHTEQNRSVIRIIPHHNYNAAINKYNHDIALLELDEPLVLNSYVTPICIADKEYTNIFLKFGSGYVSGWGRVFHKGYSALVLQYLRVPLVDRATCLESTKFTIYNNMFCAGFHEGGRDSCQGDSGGPHVTEVEGTSFLTGIISWGEECAMKGKYGIYTKVSEYVNWIKEKTKLT", "Readout value": 0.0536}

Identify the reported KM for the following entry. FIXa-Y155F/R318Y/R338E/T343R/E410N (protein) chain 1: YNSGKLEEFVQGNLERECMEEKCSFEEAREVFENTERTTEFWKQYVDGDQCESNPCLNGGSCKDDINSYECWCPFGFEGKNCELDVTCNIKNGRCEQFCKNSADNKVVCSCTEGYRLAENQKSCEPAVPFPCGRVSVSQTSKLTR chain 2: VVGGEDAKPGQFPWQVVLNGKVDAFCGGSIVNEKWIVTAAHCVETGVKITVVAGEHNIEETEHTEQKRNVIRIIPHHNYNAAINKYNHDIALLELDEPLVLNSYVTPICIADKEYTNIFLKFGSGYVSGWGRVFHKGYSALVLQYLRVPLVDRATCLESTKFRIYNNMFCAGFHEGGRDSCQGDSGGPHVTEVEGTSFLTGIISWGEECAMKGKYGIYTKVSRYVNWIKNKTKLT
0.0256
